# measuredOn: UniProtKB P11511
# Sequence (P11511 whole entry): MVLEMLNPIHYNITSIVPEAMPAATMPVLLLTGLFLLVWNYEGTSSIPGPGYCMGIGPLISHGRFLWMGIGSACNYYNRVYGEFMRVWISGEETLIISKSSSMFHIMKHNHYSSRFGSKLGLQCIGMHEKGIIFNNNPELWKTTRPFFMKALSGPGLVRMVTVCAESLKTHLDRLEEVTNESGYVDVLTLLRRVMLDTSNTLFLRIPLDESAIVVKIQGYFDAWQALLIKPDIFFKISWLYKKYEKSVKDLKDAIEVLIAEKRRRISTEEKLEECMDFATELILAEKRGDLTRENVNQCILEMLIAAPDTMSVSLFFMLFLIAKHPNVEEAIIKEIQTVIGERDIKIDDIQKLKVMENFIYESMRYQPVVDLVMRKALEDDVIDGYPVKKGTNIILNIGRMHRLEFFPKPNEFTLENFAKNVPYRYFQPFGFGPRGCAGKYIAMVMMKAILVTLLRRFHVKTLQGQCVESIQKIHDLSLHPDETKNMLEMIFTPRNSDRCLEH
# testSummary: Competitive inhibition of binding to human placental aromatase Cytochrome P450 19A1
Measured Ki, listed per entry for reference.
A number alone suffices; assume µM.

molecule: C[C@]12C=CC(=O)C=C1CC[C@@H]1[C@@H]2CC[C@]2(C)C(=O)OC[C@@H]12
measuredOn: UniProtKB P11511
measuredParameter: Ki
quantitativeResult: 0.41
--
molecule: CC12CCCC1C1CCC3=CC(=O)C=CC3(C)C1CC2 (configuration not stated)
measuredOn: UniProtKB P11511
measuredParameter: Ki
quantitativeResult: 0.69
--
molecule: CC(=O)C1(C)CCC2C(CCC3=CC(=O)C=CC32C)C1 (configuration not stated)
measuredOn: UniProtKB P11511
measuredParameter: Ki
quantitativeResult: 45
--
molecule: CC(=O)OCC1(C)CCC2C(CCC3=CC(=O)C=CC32C)C1 (configuration not stated)
measuredOn: UniProtKB P11511
measuredParameter: Ki
quantitativeResult: 13
--
molecule: COC(=O)C1(C)CCC2C(CCC3=CC(=O)C=CC32C)C1C (configuration not stated)
measuredOn: UniProtKB P11511
measuredParameter: Ki
quantitativeResult: 103

Short answer for CCC(=O)C1(C)CCC2C(CCC3=CC(=O)C=CC32C)C1 (configuration not stated) : Ki was 97

Sample CC1(C(=O)O)CCC2C(CCC3=CC(=O)C=CC32C)C1 (configuration not stated) ; Ki observed: 893

Values were extracted from ChEMBL document CHEMBL1124424.
